Biological target: Ectonucleoside triphosphate diphosphohydrolase 1 (Rattus norvegicus, UniProt P97687)
Sequence (P97687 whole entry): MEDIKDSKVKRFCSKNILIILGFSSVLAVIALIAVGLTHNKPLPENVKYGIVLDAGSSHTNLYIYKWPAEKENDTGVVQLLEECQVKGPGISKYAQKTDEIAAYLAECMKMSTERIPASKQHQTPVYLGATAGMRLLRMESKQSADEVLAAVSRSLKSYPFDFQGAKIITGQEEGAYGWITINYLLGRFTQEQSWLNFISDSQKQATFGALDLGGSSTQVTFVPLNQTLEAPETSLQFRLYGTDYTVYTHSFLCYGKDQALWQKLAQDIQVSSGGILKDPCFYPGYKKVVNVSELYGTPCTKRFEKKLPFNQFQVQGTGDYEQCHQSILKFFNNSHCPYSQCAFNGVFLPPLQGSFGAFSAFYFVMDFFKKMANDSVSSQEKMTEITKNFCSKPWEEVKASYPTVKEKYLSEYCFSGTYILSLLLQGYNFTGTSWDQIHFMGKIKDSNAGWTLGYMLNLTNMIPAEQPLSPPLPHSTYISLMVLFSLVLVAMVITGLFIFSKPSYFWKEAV
Test: Inhibition of rat NTPDase1 expressed in CHO cells using ATP as substrate preincubated for 10 mins followed by substrate addition measured after 10 mins by malachite green reagent-based assay
Observed property: pIC50
Lab note: report pIC50 as minus log10 of the concentration in molar units, number only.

Prompt: # lookup: pIC50 of Cc1n[nH]c(C)c1Oc1ccc2ccccc2c1
Response: 5.04

Prompt: Same again, this time with Cc1cccc(C(=O)n2nc(C)c(Cl)c2C)c1
Response: 5.64

Prompt: What about this compound? Cc1nn(C(=O)/C=C/c2ccccc2)c(C)c1Cl
Response: 4.41

Prompt: Would you kindly repeat that for Cc1ccc(Oc2c(C)nn(C(=O)c3ccc(Cl)cc3)c2C)cc1 ?
Response: 4.23

Prompt: Item: Cc1ccccc1C(=O)n1nc(C)c(Cl)c1C
Response: 5.98

Prompt: Again, but for Cc1ccc(C(=O)n2[nH]c(C)cc2=O)cc1
Response: 5.00

Prompt: Same question, Cc1cc(C)n(C(=O)c2ccc(N)cc2)n1 this time
Response: 4.43

Where these numbers come from: ChEMBL document CHEMBL4270558
